studyTarget: Heat shock factor protein (Homo sapiens) (UniProt Q00613+Q03933+Q9ULV5)
assayDetails: Activation of HSF in human HeLa cell clone 13B after 8 hrs by luciferase reporter gene assay
Type: cell-based
Readings of AC200 for the listed compounds
metric: AC200 (µM)

> print(dat)
                                   compound  metric  rel  testvalue
1  CC(C)(C)OC(=O)N[C@@H](CS[C@@H]1CC(=O)/C(=C/c2ccccc2)[C@H]1NC(=O)OC(C)(C)C)C(=O)O   AC200    <        6.2
2  O=C1C[C@H](Sc2ccc3ccccc3c2)[C@H](NC(=O)Oc2ccccc2)C1   AC200    =         28
3  Cc1ccc(S(=O)(=O)NC(=O)OC2C=CC(=O)C2)cc1 (stereo not drawn)   AC200    =         13
